biological target: T1, integrin αVβ5 (UniProt P06756 31-992; P18084 24-719); assay: ELISA, coated integrin, anti-MICA-HRP
T1 construct: Coated on the ELISA plate
T1 sequence (P06756 31-992, chain 1 of 2): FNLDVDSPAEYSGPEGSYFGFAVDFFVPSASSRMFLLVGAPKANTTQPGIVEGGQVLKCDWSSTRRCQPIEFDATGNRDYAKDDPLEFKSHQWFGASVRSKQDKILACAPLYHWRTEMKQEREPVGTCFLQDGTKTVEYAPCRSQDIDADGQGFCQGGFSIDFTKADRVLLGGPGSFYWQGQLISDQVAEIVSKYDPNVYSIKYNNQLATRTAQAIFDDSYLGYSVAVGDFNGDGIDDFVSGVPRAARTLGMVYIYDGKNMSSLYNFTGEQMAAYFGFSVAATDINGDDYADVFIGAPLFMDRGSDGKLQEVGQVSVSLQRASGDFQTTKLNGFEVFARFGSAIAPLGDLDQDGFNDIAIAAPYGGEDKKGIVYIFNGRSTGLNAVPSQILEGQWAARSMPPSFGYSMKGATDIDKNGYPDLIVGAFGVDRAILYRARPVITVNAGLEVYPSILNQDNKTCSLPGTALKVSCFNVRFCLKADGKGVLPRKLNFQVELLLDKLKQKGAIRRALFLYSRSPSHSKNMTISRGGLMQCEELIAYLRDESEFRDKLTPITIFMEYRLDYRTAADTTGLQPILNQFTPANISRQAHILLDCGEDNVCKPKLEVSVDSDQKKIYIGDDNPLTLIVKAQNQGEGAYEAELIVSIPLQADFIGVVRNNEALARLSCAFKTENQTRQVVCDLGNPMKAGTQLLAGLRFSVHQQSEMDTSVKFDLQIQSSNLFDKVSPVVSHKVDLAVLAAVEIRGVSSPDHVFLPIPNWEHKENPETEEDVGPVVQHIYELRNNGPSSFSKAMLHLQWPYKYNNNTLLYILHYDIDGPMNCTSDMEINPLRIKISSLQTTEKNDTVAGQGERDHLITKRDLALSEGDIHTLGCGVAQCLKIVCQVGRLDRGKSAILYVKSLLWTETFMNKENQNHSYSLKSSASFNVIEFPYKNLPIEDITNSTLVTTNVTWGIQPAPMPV
T1 sequence (P18084 24-719, chain 2 of 2): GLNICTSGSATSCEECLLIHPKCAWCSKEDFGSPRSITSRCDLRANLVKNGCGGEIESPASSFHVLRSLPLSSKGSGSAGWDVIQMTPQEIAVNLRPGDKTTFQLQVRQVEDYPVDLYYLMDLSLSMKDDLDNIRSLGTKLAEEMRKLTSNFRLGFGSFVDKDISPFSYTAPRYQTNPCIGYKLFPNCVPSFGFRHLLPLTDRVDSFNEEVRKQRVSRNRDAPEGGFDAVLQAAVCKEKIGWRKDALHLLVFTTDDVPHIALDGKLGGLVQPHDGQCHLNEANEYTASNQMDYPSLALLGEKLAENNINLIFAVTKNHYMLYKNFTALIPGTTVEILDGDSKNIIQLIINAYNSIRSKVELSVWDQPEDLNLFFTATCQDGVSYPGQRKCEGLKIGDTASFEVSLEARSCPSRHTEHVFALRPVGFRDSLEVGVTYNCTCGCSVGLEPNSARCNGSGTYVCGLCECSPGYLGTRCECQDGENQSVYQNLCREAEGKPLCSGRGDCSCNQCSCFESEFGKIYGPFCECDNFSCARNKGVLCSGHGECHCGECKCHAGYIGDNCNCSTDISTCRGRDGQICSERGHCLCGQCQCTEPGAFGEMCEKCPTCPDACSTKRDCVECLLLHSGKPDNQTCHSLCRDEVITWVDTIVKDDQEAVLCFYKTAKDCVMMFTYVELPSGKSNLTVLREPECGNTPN
readout: αvβ5 signal
Returns: string containing the number followed by the unit.

binder soluble MICA generated by pSW273 (wild type loops, negative control) (ligand, Secreted by 293T cells; six His between signal peptide and residue 1; made from pSW267 (Glu125); also called WT) HHHHHHEPHSLRYNLTVLSWDGSVQSGFLTEVHLDGQPFLRCDRQKCRAKPQGQWAEDVLGNKTWDRETRDLTGNGKDLRMTLAHIKDQKEGLHSLQEIRVCEIHEDNSTRSSQHFYYDGELFLSQNLETEEWTMPQSSRAQTLAMNVRNFLKEDAMKTKTHYHAMHADCLQELRRYLKSGVVLRRTVPPMVNVTRSEASEGNITVTCRASGFYPWNITLSWRQDGVSLSHDTQQWGDVLPDGNGTYQTWVATRICQGEEQRFTCYMEHSGNHSTHPVPSGK , αvβ5 signal observed: 0.1 OD

Recorded values, source patent US20150165065A1.
